measurementSetup: plasma; Short term stability 8 h at room temperature; 2.50 ng/mL (LQC)
quantityKind: %Accuracy (%)
Write the answer as a number in %, unit excluded.

compound | quantityKind | quantityUnit | valueMeasured
C=C1CC[C@@H]2[C@](C)(CO)[C@H](O)CC[C@@]2(C)[C@@H]1/C=C/C1=CCOC1=O [AP3, 14-deoxy-11, 12-didehydroandrographolide] | %Accuracy | % | 97.61
C=C1CC[C@@H]2[C@](C)(CO)[C@H](O)CC[C@@]2(C)[C@@H]1C/C=C1/C(=O)OC[C@H]1O [AP1, andrographolide] | %Accuracy | % | 93.65
C=C1CC[C@@H]2[C@](C)(CO[C@@H]3O[C@H](CO)[C@@H](O)[C@H](O)[C@H]3O)CCC[C@@]2(C)[C@@H]1CCC1=CCOC1=O [AP4, neoandrographolide] | %Accuracy | % | 98.11

From here, focus on the item given below.
Qu. Bench note: what %Accuracy did C=C1CC[C@@H]2[C@](C)(CO)[C@H](O)CC[C@@]2(C)[C@@H]1CCC1=CCOC1=O [AP6, 14-deoxyandrographolide] show?
Ans. 101.65

====

Reported %Accuracy by item:
protocol: Stability in urine under different storage conditions
Type: physicochemical, human
measurementSetup: Post preparative stability 24 h at autosampler, 2.50 ng/mL (LQC)
# number only, unit % dropped from output

// known answers, use as guide
molecule | quantityUnit | valueMeasured
C=C1CC[C@@H]2[C@](C)(CO)[C@H](O)CC[C@@]2(C)[C@@H]1C/C=C1/C(=O)OC[C@H]1O [AP1, andrographolide] | % | 94.23
C=C1CC[C@@H]2[C@](C)(CO[C@@H]3O[C@H](CO)[C@@H](O)[C@H](O)[C@H]3O)CCC[C@@]2(C)[C@@H]1CCC1=CCOC1=O [AP4, neoandrographolide] | % | 96.03
C=C1CC[C@@H]2[C@](C)(CO)[C@H](O)CC[C@@]2(C)[C@@H]1/C=C/C1=CCOC1=O [AP3, 14-deoxy-11, 12-didehydroandrographolide] | % | 93.61

Qu. Please report the recorded %Accuracy for C=C1CC[C@@H]2[C@](C)(CO)[C@H](O)CC[C@@]2(C)[C@@H]1CCC1=CCOC1=O [AP6, 14-deoxyandrographolide] .
Ans. 96.20

====

protocol: Stability in urine under different storage conditions
Type: physicochemical, human
measurementSetup: Freeze–thaw stability 5 cycles, 500.00 ng/mL (MQC)
quantityKind: %Accuracy (%)
Lab book: enter the figure in %, no units written.

Qu. Item C=C1CC[C@@H]2[C@](C)(CO)[C@H](O)CC[C@@]2(C)[C@@H]1/C=C/C1=CCOC1=O [AP3, 14-deoxy-11, 12-didehydroandrographolide] has what recorded %Accuracy?
Ans. 91.91

Qu. Can you handle C=C1CC[C@@H]2[C@](C)(CO)[C@H](O)CC[C@@]2(C)[C@@H]1C/C=C1/C(=O)OC[C@H]1O [AP1, andrographolide] next?
Ans. 94.01

Qu. Can you handle C=C1CC[C@@H]2[C@](C)(CO[C@@H]3O[C@H](CO)[C@@H](O)[C@H](O)[C@H]3O)CCC[C@@]2(C)[C@@H]1CCC1=CCOC1=O [AP4, neoandrographolide] next?
Ans. 92.94

Qu. Follow-up item: C=C1CC[C@@H]2[C@](C)(CO)[C@H](O)CC[C@@]2(C)[C@@H]1CCC1=CCOC1=O [AP6, 14-deoxyandrographolide]
Ans. 94.03

====

measurementSetup: plasma; Freeze–thaw stability 5 cycles; 500.00 ng/mL (MQC)
quantityKind: Measured concentration (ng/mL)
Just the number in ng/mL, nothing appended.

compound | Measured concentration (ng/mL)
C=C1CC[C@@H]2[C@](C)(CO)[C@H](O)CC[C@@]2(C)[C@@H]1/C=C/C1=CCOC1=O [AP3, 14-deoxy-11, 12-didehydroandrographolide] | 466.24
C=C1CC[C@@H]2[C@](C)(CO)[C@H](O)CC[C@@]2(C)[C@@H]1CCC1=CCOC1=O [AP6, 14-deoxyandrographolide] | 473.93

Qu. Quick one: Measured concentration of C=C1CC[C@@H]2[C@](C)(CO)[C@H](O)CC[C@@]2(C)[C@@H]1C/C=C1/C(=O)OC[C@H]1O [AP1, andrographolide] ?
Ans. 465.07

Qu. Now the compound C=C1CC[C@@H]2[C@](C)(CO[C@@H]3O[C@H](CO)[C@@H](O)[C@H](O)[C@H]3O)CCC[C@@]2(C)[C@@H]1CCC1=CCOC1=O [AP4, neoandrographolide]
Ans. 470.07

====

measurementSetup: plasma; Short term stability 8 h at room temperature; 2.50 ng/mL (LQC)
Entries and their Measured concentration
Quick reminder: number only, in ng/mL, skip the unit.

Consider the worked cases shown below.
compound | Measured concentration, ng/mL
C=C1CC[C@@H]2[C@](C)(CO)[C@H](O)CC[C@@]2(C)[C@@H]1C/C=C1/C(=O)OC[C@H]1O [AP1, andrographolide] | 2.34
C=C1CC[C@@H]2[C@](C)(CO)[C@H](O)CC[C@@]2(C)[C@@H]1CCC1=CCOC1=O [AP6, 14-deoxyandrographolide] | 2.54
C=C1CC[C@@H]2[C@](C)(CO[C@@H]3O[C@H](CO)[C@@H](O)[C@H](O)[C@H]3O)CCC[C@@]2(C)[C@@H]1CCC1=CCOC1=O [AP4, neoandrographolide] | 2.45

Pending compound:
Qu. Which Measured concentration reading was recorded for the compound C=C1CC[C@@H]2[C@](C)(CO)[C@H](O)CC[C@@]2(C)[C@@H]1/C=C/C1=CCOC1=O [AP3, 14-deoxy-11, 12-didehydroandrographolide] ?
Ans. 2.44

====

protocol: Stability in urine under different storage conditions
Type: physicochemical, human
measurementSetup: Long term stability 3 months at − 80 °C, 500.00 ng/mL (MQC)
Listed compounds paired with reported %Accuracy
API: value field is a number in %; no unit string.

# annotated cases, reported %Accuracy shown
compound | valueMeasured
C=C1CC[C@@H]2[C@](C)(CO)[C@H](O)CC[C@@]2(C)[C@@H]1/C=C/C1=CCOC1=O [AP3, 14-deoxy-11, 12-didehydroandrographolide] | 90.36
C=C1CC[C@@H]2[C@](C)(CO)[C@H](O)CC[C@@]2(C)[C@@H]1C/C=C1/C(=O)OC[C@H]1O [AP1, andrographolide] | 91.78
C=C1CC[C@@H]2[C@](C)(CO[C@@H]3O[C@H](CO)[C@@H](O)[C@H](O)[C@H]3O)CCC[C@@]2(C)[C@@H]1CCC1=CCOC1=O [AP4, neoandrographolide] | 89.13

Next:
Qu. Query: %Accuracy; subject: C=C1CC[C@@H]2[C@](C)(CO)[C@H](O)CC[C@@]2(C)[C@@H]1CCC1=CCOC1=O [AP6, 14-deoxyandrographolide]
Ans. 90.88

====

Each entry below carries its recorded Measured concentration.
protocol: Stability in urine under different storage conditions
Type: physicochemical, human
measurementSetup: Short term stability 8 h at room temperature, 500.00 ng/mL (MQC)
Your answer should be a plain number; it is taken to be in ng/mL.

Here are 3 compounds together with their reported answers.
compound | Measured concentration, ng/mL
C=C1CC[C@@H]2[C@](C)(CO)[C@H](O)CC[C@@]2(C)[C@@H]1/C=C/C1=CCOC1=O [AP3, 14-deoxy-11, 12-didehydroandrographolide] | 453.16
C=C1CC[C@@H]2[C@](C)(CO)[C@H](O)CC[C@@]2(C)[C@@H]1C/C=C1/C(=O)OC[C@H]1O [AP1, andrographolide] | 479.00
C=C1CC[C@@H]2[C@](C)(CO)[C@H](O)CC[C@@]2(C)[C@@H]1CCC1=CCOC1=O [AP6, 14-deoxyandrographolide] | 459.52

Qu. Dear colleague, I am looking for the recorded Measured concentration of the following compound: C=C1CC[C@@H]2[C@](C)(CO[C@@H]3O[C@H](CO)[C@@H](O)[C@H](O)[C@H]3O)CCC[C@@]2(C)[C@@H]1CCC1=CCOC1=O [AP4, neoandrographolide]
Ans. 461.15

====

protocol: Stability in urine under different storage conditions
Format: physicochemical, human
measurementSetup: Short term stability 8 h at room temperature, 2.50 ng/mL (LQC)
quantityKind: Measured concentration (ng/mL)
Note: unit ng/mL is implicit; provide only the numeric part.

Answered cases to consult:
molecule | quantityKind | valueMeasured
C=C1CC[C@@H]2[C@](C)(CO)[C@H](O)CC[C@@]2(C)[C@@H]1CCC1=CCOC1=O [AP6, 14-deoxyandrographolide] | Measured concentration | 2.39
C=C1CC[C@@H]2[C@](C)(CO)[C@H](O)CC[C@@]2(C)[C@@H]1C/C=C1/C(=O)OC[C@H]1O [AP1, andrographolide] | Measured concentration | 2.33
C=C1CC[C@@H]2[C@](C)(CO[C@@H]3O[C@H](CO)[C@@H](O)[C@H](O)[C@H]3O)CCC[C@@]2(C)[C@@H]1CCC1=CCOC1=O [AP4, neoandrographolide] | Measured concentration | 2.43

Field: next molecule
Qu. Measured concentration for C=C1CC[C@@H]2[C@](C)(CO)[C@H](O)CC[C@@]2(C)[C@@H]1/C=C/C1=CCOC1=O [AP3, 14-deoxy-11, 12-didehydroandrographolide] ?
Ans. 2.36
